System: S. aureus (ATCC 23235)
Experiment notes: microbe, parasite or virus in culture
Format: cell-based
Experimental parameters: Staphylococcus aureus, ATCC23235, 24 h
Readout name: MIC (µM)
Dear colleague, please return just the value in µM, with no unit written.

- Molecule: "CCCCN(C(C)=O)C(C(=O)NCc1ccc(OC)cc1)c1ccc(O)c(O)c1 (stereo not drawn)"
  Endpoint unit: "µM"
  Reported value: 0.81

// query MIC value for entry O=C(NCc1ccccc1)C(c1ccc(O)c(O)c1)N(C(=O)Cc1ccccc1)C1CCCCC1 (stereo not drawn) 0.68

// query MIC value for entry COc1ccc(CN(C(C)=O)C(C(=O)NCc2ccccc2)c2ccc(O)c(O)c2)cc1 (stereo not drawn) 0.78

----------
Tested on: E. coli K12 (ATCC 25404)
Experiment notes: MIC and MBC, microtiter plate technique
Format: cell-based
Experimental parameters: Escherichia coli, ATCC25404
Readout name: MBC
Returns: string containing the number followed by the unit.

Record CCCCN(C(=O)Cc1ccccc1)C(C(=O)NCc1ccc(OC)cc1)c1ccc(O)c(O)c1 (stereo not shown) : what is its MBC with E. coli K12 (ATCC 25404)? 0.71 µM

Record COc1ccc(CNC(=O)C(c2ccc(O)c(O)c2)N(C(C)=O)C2CCCCC2)cc1 (stereo not shown) : what is its MBC with E. coli K12 (ATCC 25404)? 0.77 µM

Record O=Cc1ccc(O)c(O)c1 [Compound 1, 3,4-dihydroxybenzaldehyde, reference compound] : what is its MBC with E. coli K12 (ATCC 25404)? 1.82 µM

Record O=C(NCc1ccc(F)cc1)C(c1ccc(O)c(O)c1)N(C(=O)Cc1ccccc1)C1CCCCC1 (stereo not shown) : what is its MBC with E. coli K12 (ATCC 25404)? 0.61 µM

----------
Experiment notes: MTT cytotoxicity assay
Format: cell-based
Experimental parameters: mouse, BALB/c3T3 mouse embryonic fibroblast cells; 24 h of incubation; (±0.14); read-out: half maximum inhibitory concentration (IC50), cytotoxicity
Readout name: IC50 at 24 h (nM)
Dear colleague, please return just the value in nM, with no unit written.

// query IC50 at 24 h value for entry COc1ccc(CN(C(=O)Cc2ccccc2)C(C(=O)NCc2ccccc2)c2ccc(O)c(O)c2)cc1 (stereo not shown) 1610

----------
Measured MBC by item
Test system: A. baumannii (ATCC 17978)
Experiment notes: MIC and MBC, microtiter plate technique
Format: cell-based
Experimental parameters: ATCC17978; Acinetobacter baumannii; TTC
Dear colleague, please return just the value in µM, with no unit written.

Sample records with MBC:
- Compound: "COc1ccc(CN(C(C)=O)C(C(=O)NCc2ccccc2)c2ccc(O)c(O)c2)cc1 (stereo not drawn) [Compound 5j]"
  MBC [µM]: 0.85
- Compound: "COc1ccc(CN(C(=O)Cc2ccccc2)C(C(=O)NCc2ccc(F)cc2)c2ccc(O)c(O)c2)cc1 (stereo not drawn) [Compound 5c]"
  MBC [µM]: 0.94

// query MBC value for entry CC(=O)N(C1CCCCC1)C(C(=O)NCc1ccc(F)cc1)c1ccc(O)c(O)c1 (stereo not drawn) [Compound 5o] 0.81

----------
Target entity: mushroom tyrosinase (mTYR) (Agaricus bisporus, UniProt C7FF04)
Construct: purchased Sigma-Aldrich (Poznan, Poland); host or cells: Agaricus bisporus (extracted natural enzyme)
Sequence (C7FF04 1-392 limits assumed): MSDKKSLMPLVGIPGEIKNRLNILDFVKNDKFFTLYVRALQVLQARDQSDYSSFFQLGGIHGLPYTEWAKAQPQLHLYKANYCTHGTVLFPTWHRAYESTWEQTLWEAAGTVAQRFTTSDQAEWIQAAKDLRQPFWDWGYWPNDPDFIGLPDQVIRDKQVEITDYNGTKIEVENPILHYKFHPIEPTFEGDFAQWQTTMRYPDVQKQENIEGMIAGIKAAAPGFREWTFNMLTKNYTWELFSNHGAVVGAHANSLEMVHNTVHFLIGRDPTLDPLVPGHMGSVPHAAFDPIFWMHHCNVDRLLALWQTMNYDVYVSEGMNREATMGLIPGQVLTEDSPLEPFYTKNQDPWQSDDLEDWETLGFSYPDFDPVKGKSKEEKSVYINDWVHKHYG
Experiment notes: Tyrosinase assay with L-DOPA as substrate (absorbance at 475 nm)
Type: biochemical
Experimental parameters: 100 µM compound
Measured inhibition at 100 µM by item

- Compound: "CC(=O)N(C1CCCCC1)C(C(=O)NCc1ccc(F)cc1)c1ccc(O)c(O)c1 (stereo not shown)"
  Reported value: "> 10%"
- Compound: "CCCCN(C(C)=O)C(C(=O)NCc1ccc(F)cc1)c1ccc(O)c(O)c1 (stereo not shown)"
  Reported value: "< 10%"
- Compound: "COc1ccc(CN(C(=O)Cc2ccccc2)C(C(=O)NCc2ccccc2)c2ccc(O)c(O)c2)cc1 (stereo not shown)"
  Reported value: "< 10%"

Now take the following compound into account.
Record CCCCN(C(C)=O)C(C(=O)NCc1ccccc1)c1ccc(O)c(O)c1 (stereo not shown) : what is its inhibition at 100 µM with mushroom tyrosinase (mTYR) (Agaricus bisporus, UniProt C7FF04)? > 10%

----------
Tested on: E. coli K12 (ATCC 25404)
Experiment notes: MIC and MBC, microtiter plate technique
Format: cell-based
Experimental parameters: Escherichia coli, ATCC25404
Readout name: MBC
Returns: string containing the number followed by the unit.

Sample records with MBC:
- Molecule: "COc1ccc(CN(C(=O)Cc2ccccc2)C(C(=O)NCc2ccccc2)c2ccc(O)c(O)c2)cc1 (centres unmarked)"
  Target entity: "E. coli K12 (ATCC 25404)"
  MBC: "0.32 µM"
- Molecule: "COc1ccc(CN(C(C)=O)C(C(=O)NCc2ccccc2)c2ccc(O)c(O)c2)cc1 (centres unmarked)"
  Target entity: "E. coli K12 (ATCC 25404)"
  MBC: "0.82 µM"

// query MBC value for entry COc1ccc(CN(C(=O)Cc2ccccc2)C(C(=O)NCc2ccc(F)cc2)c2ccc(O)c(O)c2)cc1 (centres unmarked) 0.66 µM

// query MBC value for entry CCCCN(C(C)=O)C(C(=O)NCc1ccccc1)c1ccc(O)c(O)c1 (centres unmarked) 0.89 µM

----------
System: E. coli R4 (ATCC 39543)
Experiment notes: MIC and MBC, microtiter plate technique
Assay type: cell-based
Experimental parameters: Escherichia coli, ATCC39543
Measured MBC by item
Returns: string containing the number followed by the unit.

Sample records with MBC:
- Compound: "COc1ccc(CNC(=O)C(c2ccc(O)c(O)c2)N(C(C)=O)C2CCCCC2)cc1 (centres unmarked)"
  MBC: "1.44 µM"
- Compound: "COc1ccc(CN(C(C)=O)C(C(=O)NCc2ccccc2)c2ccc(O)c(O)c2)cc1 (centres unmarked)"
  MBC: "1.47 µM"
- Compound: "O=C(NCc1ccccc1)C(c1ccc(O)c(O)c1)N(C(=O)Cc1ccccc1)C1CCCCC1 (centres unmarked)"
  MBC: "1.29 µM"

// query MBC value for entry CC(=O)N(C1CCCCC1)C(C(=O)NCc1ccccc1)c1ccc(O)c(O)c1 (centres unmarked) 1.53 µM

// query MBC value for entry CCCCN(C(C)=O)C(C(=O)NCc1ccc(F)cc1)c1ccc(O)c(O)c1 (centres unmarked) 3.5 µM

// query MBC value for entry COc1ccc(CNC(=O)C(c2ccc(O)c(O)c2)N(Cc2ccc(OC)cc2)C(C)=O)cc1 (centres unmarked) 2.82 µM

// query MBC value for entry CCCCN(C(=O)Cc1ccccc1)C(C(=O)NCc1ccc(F)cc1)c1ccc(O)c(O)c1 (centres unmarked) 2.51 µM

// query MBC value for entry CCCCN(C(C)=O)C(C(=O)NCc1ccc(OC)cc1)c1ccc(O)c(O)c1 (centres unmarked) 1.58 µM

----------
Target entity: mushroom tyrosinase (mTYR) (Agaricus bisporus, UniProt C7FF04)
Construct: purchased Sigma-Aldrich (Poznan, Poland); host or cells: Agaricus bisporus (extracted natural enzyme)
Experiment notes: Tyrosinase assay with L-DOPA as substrate (absorbance at 475 nm)
Type: biochemical
Experimental parameters: 100 µM compound
Measured inhibition at 100 µM by item

// query inhibition at 100 µM value for entry O=C(NCc1ccc(F)cc1)C(c1ccc(O)c(O)c1)N(C(=O)Cc1ccccc1)C1CCCCC1 (stereo not drawn) < 10%

// query inhibition at 100 µM value for entry COc1ccc(CN(C(=O)Cc2ccccc2)C(C(=O)NCc2ccc(F)cc2)c2ccc(O)c(O)c2)cc1 (stereo not drawn) < 10%

// query inhibition at 100 µM value for entry CCCCN(C(=O)Cc1ccccc1)C(C(=O)NCc1ccc(OC)cc1)c1ccc(O)c(O)c1 (stereo not drawn) < 10%

// query inhibition at 100 µM value for entry COc1ccc(CNC(=O)C(c2ccc(O)c(O)c2)N(Cc2ccc(OC)cc2)C(=O)Cc2ccccc2)cc1 (stereo not drawn) > 10%

// query inhibition at 100 µM value for entry O=C(NCc1ccccc1)C(c1ccc(O)c(O)c1)N(C(=O)Cc1ccccc1)C1CCCCC1 (stereo not drawn) > 10%

----------
The following compounds each carry a recorded MIC for E. coli R4 (ATCC 39543).
Dear colleague, please return just the value in µM, with no unit written.

Sample records with MIC:
- Compound: "COc1ccc(CNC(=O)C(c2ccc(O)c(O)c2)N(Cc2ccc(OC)cc2)C(=O)Cc2ccccc2)cc1 (centres unmarked)"
  MIC, µM: 2
- Compound: "COc1ccc(CN(C(=O)Cc2ccccc2)C(C(=O)NCc2ccc(F)cc2)c2ccc(O)c(O)c2)cc1 (centres unmarked)"
  MIC, µM: 1.98
- Compound: "COc1ccc(CNC(=O)C(c2ccc(O)c(O)c2)N(Cc2ccc(OC)cc2)C(C)=O)cc1 (centres unmarked)"
  MIC, µM: 2.55
- Compound: "CCCCN(C(C)=O)C(C(=O)NCc1ccc(F)cc1)c1ccc(O)c(O)c1 (centres unmarked)"
  MIC, µM: 3.13
- Compound: "CCCCN(C(=O)Cc1ccccc1)C(C(=O)NCc1ccccc1)c1ccc(O)c(O)c1 (centres unmarked)"
  MIC, µM: 1.5
- Compound: "O=C(NCc1ccc(F)cc1)C(c1ccc(O)c(O)c1)N(C(=O)Cc1ccccc1)C1CCCCC1 (centres unmarked)"
  MIC, µM: 1.28

Record CCCCN(C(=O)Cc1ccccc1)C(C(=O)NCc1ccc(F)cc1)c1ccc(O)c(O)c1 (centres unmarked) : what is its MIC with E. coli R4 (ATCC 39543)? 2.31

Record CCCCN(C(=O)Cc1ccccc1)C(C(=O)NCc1ccc(OC)cc1)c1ccc(O)c(O)c1 (centres unmarked) : what is its MIC with E. coli R4 (ATCC 39543)? 1.36
